molecular target: Human immunodeficiency virus type 1 reverse transcriptase (Human immunodeficiency virus 1, UniProt Q72547)
PROPERTY MEASURED: IC50 (µM)
The answer is to be given in µM; state only the numeric part.

Request: Item N#Cc1c(N)cccc1[S+]([O-])c1cc(Cl)ccc1Cl (stereo not drawn) has what recorded IC50?
Response: 6.31

Request: Item COc1ccc(S(=O)(=O)c2cccc(N)c2C#N)cc1 has what recorded IC50?
Response: 13.2

Request: Item COc1cc([S+]([O-])c2cccc(N)c2C#N)cc(C(F)(F)F)c1 (stereo not drawn) has what recorded IC50?
Response: 0.912
